Values compiled from patent US20060093617A1.

- Assayed target: HLA-Cw07 (Homo sapiens, UniProt P10321)
- Construct: endogenous in cells
- Assay info: HLA class I competition cell-based binding assay
Where a SMILES comes first, the peptide text is derived from it.
// reported pKi for each item listed
Friendly reminder that pKi comes from taking -log10 of the concentration in mol/L.

Worked cases, answers included:
>  <Compound>
CC(C)C[C@H](NC(=O)[C@H](C)NC(=O)CNC(=O)[C@H](C)NC(=O)[C@@H](NC(=O)CN)C(C)C)C(=O)N[C@H](C(=O)N[C@@H](C)C(=O)N[C@@H](Cc1ccccc1)C(=O)O)C(C)C (H-GVAGALVAF-OH; N-terminus and C-terminus assumed)

>  <Assay endpoint>
pKi

>  <Assay value>
5.21

$$$$
>  <Compound>
CSCC[C@H](NC(=O)CNC(=O)[C@H](CCC(=O)O)NC(=O)[C@H](CC(N)=O)NC(=O)CNC(=O)[C@H](Cc1ccc(O)cc1)NC(=O)[C@@H](N)CC(C)C)C(=O)NCC(=O)N[C@@H](Cc1c[nH]c2ccccc12)C(=O)N[C@@H](C)C(=O)O (H-LYGNEGMGWA-OH; N-terminus and C-terminus assumed)

>  <Assay endpoint>
pKi

>  <Assay value>
5.29

$$$$
>  <Compound>
CC[C@H](C)[C@H](N)C(=O)N[C@@H](CCCNC(=N)N)C(=O)N[C@@H](CO)C(=O)N[C@@H](CC(C)C)C(=O)N[C@H](C(=O)N[C@@H](CCC(=O)O)C(=O)N[C@@H](CCCNC(=N)N)C(=O)N[C@@H](CC(C)C)C(=O)N[C@@H](Cc1ccc(O)cc1)C(=O)O)[C@@H](C)O

>  <Assay endpoint>
pKi

>  <Assay value>
7.60

$$$$

# C[C@H](NC(=O)[C@H](CCC(=O)O)NC(=O)[C@@H]1CCCN1C(=O)[C@H](Cc1c[nH]cn1)NC(=O)[C@H](CCCCN)NC(=O)[C@H](CCCNC(=N)N)NC(=O)[C@@H](N)Cc1ccccc1)C(=O)N[C@H](C(=O)N[C@@H](Cc1ccc(O)cc1)C(=O)O)[C@@H](C)O (H-FRKHPEATY-OH; N-terminus and C-terminus assumed) with HLA-Cw07 (Homo sapiens, UniProt P10321): pKi is 9.70

Param item: `CC(C)C[C@H](NC(=O)[C@H](CC(C)C)NC(=O)[C@@H]1CCCN1C(=O)[C@@H](NC(=O)[C@@H]1CCCN1C(=O)CNC(=O)[C@H](Cc1c[nH]cn1)NC(=O)[C@@H](N)CC(C)C)[C@@H](C)O)C(=O)N[C@@H](Cc1ccc(O)cc1)C(=O)O` ; param system: HLA-Cw07 (Homo sapiens, UniProt P10321); output pKi: 7.51

HLA-Cw07 (Homo sapiens, UniProt P10321) data for `CC[C@H](C)[C@H](NC(=O)[C@@H](N)CC(N)=O)C(=O)N[C@H](C(=O)N[C@@H](CC(=O)O)C(=O)N[C@H](C(=O)N[C@@H](CCC(N)=O)C(=O)N[C@@H](Cc1ccc(O)cc1)C(=O)N[C@@H](CC(C)C)C(=O)N[C@@H](Cc1ccc(O)cc1)C(=O)O)C(C)C)C(C)C` ; its pKi: 7.25

Value (pKi, HLA-Cw07 (Homo sapiens, UniProt P10321)) for record `CC[C@H](C)[C@H](NC(=O)[C@H](CC(N)=O)NC(=O)[C@H](CCC(N)=O)NC(=O)[C@@H](N)Cc1c[nH]cn1)C(=O)N[C@H](C(=O)N[C@@H](CC(=O)O)C(=O)N[C@H](C(=O)N[C@@H](CCC(N)=O)C(=O)N[C@@H](Cc1ccc(O)cc1)C(=O)O)C(C)C)C(C)C` = 4.85
